This section presents compounds with their documented Peak area as % of total area of all glycoforms, 14,364 values.
System: lysozyme
Test: ESI-MS of lysozyme glycoforms after incubation with D-ribose
Settings: lysozyme with one carboxymethylated Lys residue (14,364 Da); 37° C., 5 days
Put your answer as a value accompanied by its unit after it.

Record excerpt, results attached:
O=C1OC(CN2CCOCC2)CN1/N=C/c1ccc([N+](=O)[O-])o1 (centres unmarked) | 0.9%
O=c1cc(-c2cc(O)c(O)c(O)c2)oc2cc(O)cc(O)c12 [5,7,3′,4′,5′-Pentahydroxyflavone] | 2.2%

Exam item: Reported Peak area as % of total area of all glycoforms, 14,364 for lysozyme, given O=Cc1ccc(O)c(O)c1 [3,4-Dihydroxybenzaldehyde] ?
Marked response: 0.0%

Exam item: Reported Peak area as % of total area of all glycoforms, 14,364 for lysozyme, given Nc1ncc([N+](=O)[O-])cn1 ?
Marked response: 3.6%

Exam item: Reported Peak area as % of total area of all glycoforms, 14,364 for lysozyme, given N=C(N)NN ?
Marked response: 3.2%

---

Test system: lysozyme
Experiment: ESI-MS of lysozyme glycoforms after incubation with D-ribose
Settings: lysozyme + D-ribose − 2H2O (14,419 Da); 37° C., 5 days
This section presents compounds with their documented Peak area as % of total area of all glycoforms, 14,419 values.
Numeric only. Scale: %

CNC[C@H](O)c1ccc(O)c(O)c1 [L-Epinephrine] | 2.0
O=c1c(O)c(-c2cc(O)c(O)c(O)c2)oc2cc(O)cc(O)c12 [Myricetin] | 1.8
O=C1c2c(O)ccc(O)c2C(=O)c2c(NCCNCCO)ccc(NCCNCCO)c21 [Mitoxantrone] | 6.5
O=c1cc(-c2ccccc2)oc2cc(O)c(O)c(O)c12 [Baicalein] | 0.0

Note: attention shifts to another entry.
Exam item: Any idea what its Peak area as % of total area of all glycoforms, 14,419 is? The compound is COc1ccc2c(c1)c(CC(=O)O)c(C)n2C(=O)c1ccc(Cl)cc1 [Indomethacin]
Marked response: 7.5

---

Tested on: lysozyme
Assay: ESI-MS of lysozyme glycoforms after incubation with D-ribose;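 note: lysozyme incubated with D-ribose, with or without anti-glycation agents, then separated by reversed-phase HPLC and analysed by electrospray mass spectrometry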
Details: lysozyme with one carboxymethylated Lys residue (14,364 Da); 37° C., 5 days
Exam item: assign met to entries whose Peak area as % of total area of all glycoforms, 14,364 is below 4% and not met to entries at or above 4%. Note that a value of exactly 4% receives not met.

These solved cases illustrate the format of a correct answer.
O=c1cc(-c2ccccc2)oc2cc(O)c(O)c(O)c12 [Baicalein] | met
CS(=O)(=O)Nc1ccc([N+](=O)[O-])cc1Oc1ccccc1 [Nimesulide] | met
Cc1cc(N)c2ccccc2c1O [Vitamin K5] | not met
O=c1c(O)c(-c2cc(O)c(O)c(O)c2)oc2cc(O)cc(O)c12 [Myricetin] | met

Exam item: is_below(Peak area as % of total area of all glycoforms, 14,364, 4%) for CNC[C@H](O)c1ccc(O)c(O)c1 [L-Epinephrine] ?
Marked response: not met

Exam item: is_below(Peak area as % of total area of all glycoforms, 14,364, 4%) for O=C1C[C@@H](c2ccc(O)c(O)c2)Oc2cc(O)cc(O)c21 [Eriodictyol] ?
Marked response: met

Exam item: is_below(Peak area as % of total area of all glycoforms, 14,364, 4%) for O=C(O[C@@H]1Cc2c(O)cc(O)cc2O[C@@H]1c1cc(O)c(O)c(O)c1)c1cc(O)c(O)c(O)c1 [(−)-Epigallocatechin gallate] ?
Marked response: met

Exam item: is_below(Peak area as % of total area of all glycoforms, 14,364, 4%) for CC(C)NC[C@@H](O)c1ccc(O)c(O)c1 [D-Isoproterenol] ?
Marked response: not met
